Values compiled from patent US20230174641A1.

experimental target: T1, human ACTH 1-39 (human)
T1 construct: unlabelled synthetic peptide (Bachem or American Peptide) as used in SPR and cell assays; also called huACTH 1-39; huACTH(1-39)
T1 peptide: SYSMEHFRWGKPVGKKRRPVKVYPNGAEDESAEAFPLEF
procedure details: SPR ProteOn, antibody immobilised
experimental endpoint: Kd (nM)
Give your result in nM as a bare value.

As a guide, the following entries are already answered.
Ab10 (antibody, human IgG1, kappa, N297A, V domains shown, rabbit/human chimeric antibody, made in HEK-293) VH: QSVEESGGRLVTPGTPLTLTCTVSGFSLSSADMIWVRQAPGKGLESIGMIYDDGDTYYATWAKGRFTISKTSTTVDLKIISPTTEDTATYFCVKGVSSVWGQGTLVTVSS VL: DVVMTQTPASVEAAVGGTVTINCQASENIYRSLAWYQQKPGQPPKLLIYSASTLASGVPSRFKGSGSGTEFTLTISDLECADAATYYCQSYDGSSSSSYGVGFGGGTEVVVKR : 0.11
Ab11 (antibody, human IgG1, kappa, N297A, V domains shown, rabbit/human chimeric antibody, made in HEK-293) VH: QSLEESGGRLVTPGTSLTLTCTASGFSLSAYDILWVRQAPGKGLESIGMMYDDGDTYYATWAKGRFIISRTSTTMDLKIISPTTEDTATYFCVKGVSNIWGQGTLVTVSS VL: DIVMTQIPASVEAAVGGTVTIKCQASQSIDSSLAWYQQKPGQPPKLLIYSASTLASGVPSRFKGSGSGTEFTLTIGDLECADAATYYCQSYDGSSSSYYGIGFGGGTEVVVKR : 0.04

Now look at this one.
Data request: Answer with the recorded Kd of Ab7 (antibody, human IgG1, kappa, N297A, V domains shown, rabbit/human chimeric antibody, made in HEK-293) VH: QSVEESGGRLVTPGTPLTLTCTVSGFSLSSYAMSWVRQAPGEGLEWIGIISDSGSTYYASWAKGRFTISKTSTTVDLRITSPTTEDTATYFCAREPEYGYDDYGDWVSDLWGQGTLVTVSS VL: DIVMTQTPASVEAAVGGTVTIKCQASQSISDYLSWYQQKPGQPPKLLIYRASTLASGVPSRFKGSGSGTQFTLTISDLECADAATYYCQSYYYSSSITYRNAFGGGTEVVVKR only.
Data returned: 0.037
